Data credit: patent US20110098217A1

# system-tested: T1, human glucagon receptor (human, UniProt P47871 26-477)
# T1 construct: whole, on cells; cAMP assay: transfected HEK293 cells
# T1 sequence (P47871 26-477): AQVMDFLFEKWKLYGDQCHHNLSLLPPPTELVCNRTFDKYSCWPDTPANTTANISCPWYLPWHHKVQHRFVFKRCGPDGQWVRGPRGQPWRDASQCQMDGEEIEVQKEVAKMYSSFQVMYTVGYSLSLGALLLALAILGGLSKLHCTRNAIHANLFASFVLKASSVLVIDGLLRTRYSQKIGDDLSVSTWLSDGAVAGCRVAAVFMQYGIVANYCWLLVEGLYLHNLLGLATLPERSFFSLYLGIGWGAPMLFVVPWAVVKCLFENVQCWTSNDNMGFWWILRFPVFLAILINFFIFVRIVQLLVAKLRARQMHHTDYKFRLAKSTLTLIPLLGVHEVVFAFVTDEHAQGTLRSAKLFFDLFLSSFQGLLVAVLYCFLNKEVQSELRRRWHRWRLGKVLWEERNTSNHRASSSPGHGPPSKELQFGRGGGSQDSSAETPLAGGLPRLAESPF
# assay-remarks: SPA competition vs 125I-glucagon, receptor membranes
Ends that are not written are not given here.
Recorded IC50 for the following binders
quantity-measured: IC50

INSERT INTO results (binder, test_value) VALUES
  ('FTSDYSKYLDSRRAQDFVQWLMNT-NH2 (also called peptide no; 15) [Glucagon(aa6-29)-NH2]', '1890 nM'),
  ('LTFTSEYSKYLDSRRAQDFVQWLMNT-NH2 (also called peptide no) [[Leu^4, Glu^9]Glucagon(aa4-29)-NH2]', '36.4 nM'),
  ('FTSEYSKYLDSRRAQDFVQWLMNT-NH2 (also called [E^9]Glucagon(aa6-29)-NH2; peptide no; 11) [[Glu^9]Glucagon(aa6-29)-NH2]', '36.4 nM'),
  ('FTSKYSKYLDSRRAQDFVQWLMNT-NH2 (also called [K^9]Glucagon(aa6-29)-NH2; peptide no; 16) [[Lys^9]Glucagon(aa6-29)-NH2]', '5780 nM');
